- target under test: Kv7.2/7.3 (Homo sapiens, UniProt O43525+O43526)
- test: Kv7.2/7.3 Activation Assay, QPatch single concentration screen
- Format: cell-based
- Design: host or cells: HEK cells, tetracycline-inducible expression
- stated conditions: Kv7.2/Kv7.3 co-expressing HEK cells, compound concentration 3 μM, steady-state current at end of 2 s pulse to −30 mV
readout label: Kv7.2/7.3 Activity: increase over baseline in current

{"columns": ["compound", "result"],
 "data": [
  ["CC(C)(O)c1cc(F)c2nc(NC(=O)CC(C)(C)C(F)F)n(C3CCC3)c2c1 [Example 456]", "++ (3-3.9 (++))"],
  ["CC(CF)(CF)CC(=O)Nc1nc2ccc(C(C)(C)O)cc2n1C1CCC1 [Example 370]", "++ (3-3.9 (++))"],
  ["CC(C)(CC(=O)Nc1nc2c(F)cc(OC(F)F)cc2n1C1CCC1)C1CC1 [Example 390]", "+ (1.2-2.9 (+))"],
  ["CC(C)(C)CC(=O)Nc1nc2c(F)cc(C(C)(C)O)c(F)c2n1C1CCC1 [Example 438]", "O"],
  ["CC(C)(C)CC(=O)Nc1nc2ccc(C(C)(C)O)cc2n1C12CC(C1)C2 [Example 425]", "++ (3-3.9 (++))"],
  ["C[C@H](CC(=O)Nc1nc2ccc(C(C)(C)O)cc2n1C1CCC1)c1ccccc1 [Example 336]", "+ (1.2-2.9 (+))"],
  ["CC(C)(O)c1ccc2nc(NC(=O)CC(C)(O)c3ccccc3)n(C34CC(C3)C4)c2c1 (single isomer, unassigned) [Example 335]", "O"]
]}

----------
- target under test: Kv7.2/7.3 (Homo sapiens, UniProt O43525+O43526)
- test: Kv7.2/7.3 Thallium Flux Assay
- Type: cell-based
- Design: host or cells: HEK cells, tetracycline-inducible expression
- stated conditions: read-out: Kv7.2/7.3 Activity: EC50 of Kv7.2/Kv7.3 activation
- From the text: The Thallium Flux Assay is used as a surrogate indicator of potassium channel activity. The experimental protocol was adapted from the FluxOR™ II Green Potassium Ion Channel Assay User Guide (Pub. No. MAN0016084, Invitrogen). Conditions were optimized for the Kv7.2/7.3 cell line. […] A plate reader (Enspire, Perkin Elmer) is used to characterize the ion-channel modulating properties of novel compounds using an excitation wavelength of 475 nm and an emission wavelength of 530 nm. […]
// reported EC50 for each item listed

{"columns": ["molecule", "EC50"],
 "data": [
  ["CC(C)(C)CC(=O)Nc1nc2c(F)cc(C#N)c(F)c2n1C1(C)CCC1", "< 1000 nM"],
  ["CC1(n2c(NC(=O)CC3CC(F)(F)C3(F)F)nc3c(F)ccc(C#N)c32)CCC1 (single isomer, unassigned)", "< 1000 nM"],
  ["CC(C(=O)Nc1nc2cc(F)c(F)cc2n1C1(C)CCC1)C1(C(F)(F)F)CC1 (single isomer, unassigned)", "< 1000 nM"],
  ["COc1cc(C#N)cc2c1nc(NC(=O)C13CCC(C1)C3)n2C(C)(C)C", "1000 to 3000 nM"]
]}

----------
- target under test: Kv7.2/7.3 (Homo sapiens, UniProt O43525+O43526)
- test: Kv7.2/7.3 Thallium Flux Assay
- Type: cell-based
- Set-up: host or cells: HEK cells, tetracycline-inducible expression
- stated conditions: read-out: Kv7.2/7.3 Activity: EC50 of Kv7.2/Kv7.3 activation
- From the text: The Thallium Flux Assay is used as a surrogate indicator of potassium channel activity. The experimental protocol was adapted from the FluxOR™ II Green Potassium Ion Channel Assay User Guide (Pub. No. MAN0016084, Invitrogen). Conditions were optimized for the Kv7.2/7.3 cell line. […] A plate reader (Enspire, Perkin Elmer) is used to characterize the ion-channel modulating properties of novel compounds using an excitation wavelength of 475 nm and an emission wavelength of 530 nm. […]

{"columns": ["molecule", "EC50"],
 "data": [
  ["CC1(n2c(NC(=O)CC3(C(F)(F)F)CC3)nc3cc(F)ccc32)CCC1 [Example 527]", "< 1000 nM"],
  ["CC1(n2c(NC(=O)CC3CC(F)(F)C3(F)F)nc3c(F)cc(C#N)cc32)CCC1 (single isomer, unassigned) [Example 512]", "< 1000 nM"],
  ["CC(C)(CC(=O)Nc1nc2cc(F)ccc2n1C1(C)CCC1)C(F)F [Example 524]", "< 1000 nM"],
  ["CC(C)(C)CC(=O)Nc1nc2ccc(C(C)(C)O)c(OC(F)(F)F)c2n1C1CCC1 [Example 501]", "1000 to 3000 nM"],
  ["CC(C)(C)n1c(NC(=O)CC2CC(F)(F)C2(F)F)nc2cc(F)c(F)cc21 (single isomer, unassigned) [Example 557]", "< 1000 nM"],
  ["CC(C)(C)n1c(NC(=O)CC2CC(F)(F)C2(F)F)nc2cc(F)ccc21 (single isomer, unassigned) [Example 529]", "< 1000 nM"],
  ["CC(C)(C)n1c(NC(=O)CC2CC(F)(F)C2(F)F)nc2cc(F)c(F)cc21 (single isomer, unassigned) [Example 558]", "1000 to 3000 nM"]
]}
